This collection of values is drawn from the ASAP Discovery antiviral challenge data (2025).

For each entry below, report its microsomal CLint value.
Conditions: human; liver_microsomes
Use µL/min/mg as the unit, but write only the number.

Entry O=C(O)c1cc(Cl)c(F)cc1S(=O)(=O)Nc1ccc(Oc2ccccc2Cl)cc1 : reported microsomal CLint = ?
67.4

For O=C(Nc1cc(Cl)cc(C(=O)Nc2ccc3c(c2)CNC3)c1)OCc1ccccc1 , what is its reported microsomal CLint?
12.7

# microsomal CLint lookup, item Cc1c(C(=O)Nc2cc([C@H]3CCOC3)ccn2)cc(C2CC2)n1C (racemic)
57.7

Any idea what its microsomal CLint is? The compound is CC(C)[C@H](Nc1ncnc2[nH]ccc12)c1ccc2c(c1)S(=O)(=O)CCO2 (racemic)
18

Which measured microsomal CLint value corresponds to CC(C)[C@@H](Nc1ncnc2[nH]c(-c3cnn(C)c3C#N)cc12)c1ccc2c(c1)OCCO2 ?
47

Given the compound CNC(=O)c1cc2c(N[C@H](c3ccc4c(c3)OCCO4)C(C)C)ncnc2[nH]1 (racemic) , what is its reported microsomal CLint?
79

Could you share which microsomal CLint value was measured for CNC(=O)c1cc(Cl)ccc1NS(=O)(=O)c1ccc(Oc2ccccc2Cl)cc1 ?
106

Would you kindly share the measured microsomal CLint for CC(C)[C@H](Nc1ncnc2[nH]c(-c3cnn(CC(N)=O)c3)cc12)c1ccc2c(c1)OCCO2 (racemic) ?
99

Which microsomal CLint is reported for this compound? CC(C)[C@H](Nc1ncnc2[nH]c(-c3cnn(C)c3C#N)cc12)c1ccc2c(n1)OCCO2 (racemic)
56

====

property.label: solubility kinetic
Answer format reminder: number followed by unit.

Returns the measured solubility kinetic for the input compound. Input: CC(C)n1cc2c(C(=O)Nc3ccc4c(c3)CNC4)cc(Cl)cc2n1
181 µM

Look up solubility kinetic for this compound: CC(C)[C@H](Nc1ncnc2[nH]c(-c3cnn(C)c3)cc12)c1ccc2c(c1)S(=O)(=O)CCC2 (single isomer, unassigned)
111 µM

May I ask what solubility kinetic has been recorded for CNC(=O)[C@H](Nc1ccc2c(c1)CNC2)c1cc(Cl)cc2[nH]c(-c3ccccc3)nc12 (racemic) ?
178 µM

// solubility kinetic lookup, key: CC(C)(C)[C@H](Nc1ncnc2[nH]c(-c3cnn(CC(N)=O)c3)cc12)c1ccc2c(n1)OCCO2 (racemic)
48 µM

Need solubility kinetic of CN(c1ccc2c(c1)CNC2)[C@H](C(=O)NCC(F)F)c1cc(Cl)cc(C2CC2)c1 (racemic) , thanks.
172 µM

Given the compound NCc1cccc(NC(=O)c2cc(OCc3ccccc3)ccc2CNC(=O)OCc2ccccc2)c1 , what is its reported solubility kinetic?
14 µM

If you can, please state the reported solubility kinetic value of C[C@H](C(=O)O)[C@@H](NC(=O)c1ncnc2[nH]ccc12)c1ccc(Br)cc1 (single isomer, unassigned) .
358 µM

Would you kindly share the measured solubility kinetic for O=C(Nc1cc(Cl)cc(C(=O)Nc2cccc(-c3nnn[nH]3)c2)c1)OCc1ccccc1 ?
65 µM

Quick check: solubility kinetic of O=C(Nc1ccc2c(c1)CNC2)c1cc(F)cc2[nH]c(-c3ccc(F)cc3)nc12 ?
6 µM

Find the recorded solubility kinetic belonging to CCNC(=O)c1cc2c(N[C@H](c3ccc4c(c3)S(=O)(=O)CCC4)C(C)C)ncnc2[nH]1 (racemic) and report it.
336 µM

Please report the recorded solubility kinetic for CNC(=O)c1cc2c(N[C@H](c3ccc4c(c3)S(=O)(=O)CCC4)C(C)C)ncnc2[nH]1 (racemic) .
369 µM

What value of solubility kinetic has been reported for the following compound? N#Cc1cccc(-c2nc3c(C(=O)Nc4ccc5c(c4)CNC5)cc(F)cc3[nH]2)c1
3 µM

Item under review: Nc1nc(-c2ccccc2)nc2[nH]nc(Nc3ccc(C(F)(F)F)cc3)c12 . Reported solubility kinetic?
2 µM

Any idea what solubility kinetic was measured for O=C(Nc1ccc2c(c1)CNC2)c1cc(F)cc(-c2cn[nH]c2)c1 ?
184 µM

May I ask what solubility kinetic has been recorded for CCCCNC(=O)[C@H](Nc1ccc2c(c1)CNC2)c1cc(Cl)cc(C2CC2)c1 (racemic) ?
379 µM

// query solubility kinetic value for entry Cc1cc(CCCOc2c(C)cc(-c3noc(C(F)(F)F)n3)cc2C)on1
18 µM

Can you look up the measured solubility kinetic of O=C1Cc2c(cccc2C(=O)Nc2ccc3c(c2)CNC3)N1 for me?
152 µM

Can you share its solubility kinetic? I mean this compound: CC(C)[C@H](Nc1ncnc2[nH]c(-c3cnn(CCC(N)=O)c3)cc12)c1ccc2c(c1)OCCO2 (racemic)
236 µM
